Entry source: ChEMBL document CHEMBL2163232

assayProtocol: Aqueous solubility of the compound
Format: physicochemical
details: aqueous solution
measure: solubility
Mention the unit after the number when you answer.

So for O=S(=O)(NCCO)c1ccc(-c2ccnc3[nH]c(C4CC4)cc23)cc1 , the logged solubility turned out to be 64 µM

----------
studySystem: Inhibitor of nuclear factor kappa-B kinase subunit alpha (Homo sapiens, UniProt O15111)
Sequence (O15111 whole entry): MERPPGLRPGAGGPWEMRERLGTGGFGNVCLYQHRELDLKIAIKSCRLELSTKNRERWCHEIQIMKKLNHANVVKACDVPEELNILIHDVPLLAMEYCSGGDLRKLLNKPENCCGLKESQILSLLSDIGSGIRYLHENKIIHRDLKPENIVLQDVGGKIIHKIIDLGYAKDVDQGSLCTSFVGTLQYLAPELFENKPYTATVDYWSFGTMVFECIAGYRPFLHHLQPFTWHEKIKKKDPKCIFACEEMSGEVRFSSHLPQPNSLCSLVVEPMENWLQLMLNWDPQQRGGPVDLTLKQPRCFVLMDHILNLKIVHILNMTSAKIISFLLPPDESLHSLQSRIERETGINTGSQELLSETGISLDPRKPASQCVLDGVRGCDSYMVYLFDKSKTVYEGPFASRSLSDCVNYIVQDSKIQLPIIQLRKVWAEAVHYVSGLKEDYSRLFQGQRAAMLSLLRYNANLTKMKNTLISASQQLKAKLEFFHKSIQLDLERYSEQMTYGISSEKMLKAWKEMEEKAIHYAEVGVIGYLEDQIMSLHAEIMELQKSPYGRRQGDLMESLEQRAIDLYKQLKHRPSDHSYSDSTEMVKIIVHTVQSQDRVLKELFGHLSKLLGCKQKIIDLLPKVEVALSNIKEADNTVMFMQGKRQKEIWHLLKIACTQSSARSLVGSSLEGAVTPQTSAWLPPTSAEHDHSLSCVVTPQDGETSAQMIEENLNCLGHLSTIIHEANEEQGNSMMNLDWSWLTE
assayProtocol: Inhibition of IKK1 in presence of 1 uM ATP
pIC50: −log10 of the molar value.
I would appreciate it if you labelled entries MET when pIC50 is 7 or higher, otherwise NOT MET.

Q) For this molecule, is measured pIC50 7 or higher? CCc1cc2c(-c3ccc(S(=O)(=O)NC4CCS(=O)(=O)CC4)cc3)ccnc2[nH]1
A) MET

Q) For this molecule, is measured pIC50 7 or higher? O=S(=O)(NCCO)c1ccc(-c2ccnc3[nH]c(C4CC4)cc23)cc1
A) NOT MET

Q) For this molecule, is measured pIC50 7 or higher? C[C@@H](CO)NS(=O)(=O)c1ccc(-c2ccnc3[nH]c(C(F)(F)F)cc23)cc1
A) NOT MET

Q) For this molecule, is measured pIC50 7 or higher? CC(C)c1cc2c(-c3ccc(S(=O)(=O)NC4CCS(=O)(=O)CC4)cc3)ccnc2[nH]1
A) MET

Q) For this molecule, is measured pIC50 7 or higher? C[C@@H](CO)NS(=O)(=O)c1ccc(-c2ccnc3[nH]c(C4CC4)cc23)cc1
A) NOT MET

Q) For this molecule, is measured pIC50 7 or higher? Cc1cc2c(-c3ccc(S(=O)(=O)NC4CCS(=O)(=O)CC4)nc3)ccnc2[nH]1
A) MET

Q) For this molecule, is measured pIC50 7 or higher? O=S(=O)(NCCO)c1ccc(-c2ccnc3[nH]c(C(F)(F)F)cc23)cc1
A) NOT MET

Q) For this molecule, is measured pIC50 7 or higher? O=S1(=O)CCC(NS(=O)(=O)c2ccc(-c3ccnc4[nH]c(Cn5ccnn5)cc34)cc2)CC1
A) MET

Q) For this molecule, is measured pIC50 7 or higher? Cc1cc2c(-c3ccc(S(=O)(=O)NCC(C)(C)O)cc3)ccnc2[nH]1
A) NOT MET

Q) For this molecule, is measured pIC50 7 or higher? O=S1(=O)CCC(NS(=O)(=O)c2ccc(-c3ccnc4[nH]c(C5CC5)cc34)cc2)CC1
A) MET
